Entry source: patent US20110112308A1

# test-name: Stability of mixtures with excipients
# Assay type: physicochemical
# assay-setup: Mixture 6: 50% Mannitol + 47% HPCLH21 + 1% BHT/BHA + 2% Magnesium Stearate; 50° C./75% r.h., 2 weeks
test-readout: % DS (drug substance) (% area)

- molecule: "Cc1[nH]c2ccccc2c1CCNCc1ccc(/C=C/C(=O)NO)cc1 [Free base]"
  readout-unit: "% area"
  % DS (drug substance): 99.4
- molecule: "Cc1[nH]c2ccccc2c1CCNCc1ccc(/C=C/C(=O)NO)cc1.O=C(O)/C=C\\C(=O)O [Maleate]"
  readout-unit: "% area"
  % DS (drug substance): 99.7
- molecule: "CC(O)C(=O)O.Cc1[nH]c2ccccc2c1CCNCc1ccc(/C=C/C(=O)NO)cc1.O (racemic) [Monohydrate DL-lactate salt]"
  readout-unit: "% area"
  % DS (drug substance): 99.3
- molecule: "CS(=O)(=O)O.Cc1[nH]c2ccccc2c1CCNCc1ccc(/C=C/C(=O)NO)cc1 [Mesylate]"
  readout-unit: "% area"
  % DS (drug substance): 99.3
- molecule: "Cc1[nH]c2ccccc2c1CCNCc1ccc(/C=C/C(=O)NO)cc1.Cl [HCl]"
  readout-unit: "% area"
  % DS (drug substance): 99.5
